Tested on: IgM antibody production from murine spleen B cells
Procedure Summary: Effects on the IgM antibody production from murine spleen cells (LPS + IL4)
Format: cell-based, BALB/c mouse
Condition Details: Mus musculus, B-cell, 168 h; spleen B cells, LPS 10 μg/ml, IL4 100 U/ml, 7 days, enzyme-immunoassay; read-out: IC50 value, IgM antibody production
Property Label: log10 IC50 (log10 of the value in µg/mL)

> print(dat)
                                query.smiles  property.label  assay.value
 1  O=C(O[C@H]1C=C[C@H]2CO[C@@H]1O2)c1ccc(Cl)cc1      log10 IC50         1.30
 2  O=C(O[C@H]1C=C[C@H]2CO[C@@H]1O2)C1CCCCC1      log10 IC50         1.75
 3         CC(=O)O[C@H]1C=C[C@H]2CO[C@@H]1O2      log10 IC50         2.86
 4           CCCCO[C@H]1C=C[C@H]2CO[C@@H]1O2      log10 IC50         2.04
 5  CC(=O)Oc1ccccc1C(=O)O[C@H]1C=C[C@H]2CO[C@@H]1O2      log10 IC50         1.45
 6  CCCCCCCCCCCCCCCCCCCC(=O)O[C@H]1C=C[C@H]2CO[C@@H]1O2      log10 IC50         2.70
 7  O=C(Nc1ccccc1)O[C@H]1C=C[C@H]2CO[C@@H]1O2      log10 IC50         1.84
 8  S=C(Oc1ccccc1)O[C@H]1C=C[C@H]2CO[C@@H]1O2      log10 IC50         2.04
 9  O=C(O[C@H]1C=C[C@H]2CO[C@@H]1O2)c1cccnc1      log10 IC50         1.89
10        CCCC#C[C@]1(O)C=C[C@H]2CO[C@@H]1O2      log10 IC50         1.00
11  O=C(CCCCCCCCCCCCCCCO)O[C@H]1C=C[C@H]2CO[C@@H]1O2      log10 IC50        -0.37
12  CCCCCCCC/C=C\CCCCCCCC(=O)O[C@H]1C=C[C@H]2CO[C@@H]1O2      log10 IC50         2.53
13          CCCC[C@]1(O)C=C[C@H]2CO[C@@H]1O2      log10 IC50         2.18
14  O=C(/C=C/c1ccccc1)O[C@H]1C=C[C@H]2CO[C@@H]1O2      log10 IC50        -0.17
15   O=C(O[C@H]1C=C[C@H]2CO[C@@H]1O2)c1ccco1      log10 IC50         2.00

====

Catalogue of IC50 readings, one per entry.
Tested on: murine bone mallow cells
Procedure Summary: Effects on the murine bone mallow cells (proliferation, 3H-TdR uptake)
Type: cell-based, BALB/c mouse
Condition Details: Mus musculus, bone marrow cells; 20% L929 culture supernatant, 48 hours, 3H-TdR uptake; Tables 12-15; read-out: IC50 value, c (murine bone mallow cells)
Property Label: IC50

> print(dat)
                             query.smiles  property.label   assay.value
1  C/C=C/C(=O)O[C@H]1C=C[C@H]2CO[C@@H]1O2            IC50     130 µg/mL
2            O[C@@H]1C=C[C@H]2CO[C@@H]1O2            IC50  > 1000 µg/mL
3      CNC(=S)O[C@H]1C=C[C@H]2CO[C@@H]1O2            IC50     620 µg/mL
